Observed log10 of IC50, system Akt1 (Homo sapiens).
# log10 transformed; quantity=IC50; unit=nM

Here is how some compounds turned out for log10 of IC50.
INSERT INTO measurements (compound, recorded_measurement) VALUES
  ('Cn1ncc(Cl)c1-c1cnc(C(=O)N[C@@H]2CNCC[C@H]2c2ccc(Cl)c(C(F)(F)F)c2)cc1Cl [Compound 95]', 1.23),
  ('Cn1ncc(Cl)c1-c1cc(C(=O)N[C@H]2CNCC[C@@H]2c2ccc(F)c(F)c2)oc1Cl (racemic) [Compound 31]', 1.26),
  ('Cc1cc(-c2c(Cl)cnn2C)cc(C(=O)N[C@H]2CNCC[C@@H]2c2ccccc2)n1 (relative stereo) [Compound 45]', 2.91),
  ('Cn1ncc(Cl)c1-c1cc(C(=O)N[C@@H]2CNC(CC(=O)NC3CC3)C[C@H]2c2ccc(Cl)c(Cl)c2)oc1Cl (stereo partly drawn) [Compound 119]', 0.60),
  ('CNC(=O)CC1C[C@@H](c2cccc(F)c2)[C@H](NC(=O)c2cc(Cl)c(-c3c(Cl)cnn3C)s2)CN1 (stereo partly drawn) [Compound 149]', 0.85);

Query: log10 of IC50; subject: Cc1nc(C(=O)N[C@H]2CNCC[C@@H]2c2ccncc2)ccc1-c1c(Br)cnn1C (racemic) [Compound 58]
1.72

Query: log10 of IC50; subject: Cn1ncc(Cl)c1-c1cc(C(=O)N[C@@H]2CNC(CCN3CCOCC3)C[C@H]2c2ccc(Cl)c(Cl)c2)oc1Cl (stereo partly drawn) [Compound 109]
0.95

Query: log10 of IC50; subject: Cn1ncc(Br)c1-c1ccc(C(=O)N[C@@H]2CNCC[C@H]2c2cccc(F)c2)s1 [Compound 147]
0.95

Query: log10 of IC50; subject: CC(=O)OCCC1C[C@@H](c2ccc(F)c(F)c2)[C@H](NC(=O)c2cc(-c3c(Cl)cnn3C)c(Cl)o2)CN1 (stereo partly drawn) [Compound 131]
-0.10

====

Test system: Human ovarian cancer cell strain OVCAR-8
test_description: MTT assay, inhibition of tumor cell growth in vitro, 72 h
Type: cell-based
assay_setup: Homo sapiens, OVCAR-8, MTT, read-out: Antitumor proliferative activities of tumor cell (IC50, μM) OVCAR-8
Procedure: First, inhibitory activity on tumor proliferation in vitro is determined and the structure activity relationship is preliminarily studied, in which different solid tumor cell strains are selected for determining the antitumor activities in vitro of the synthesized compounds. Cell strains: Human ovarian cancer cell strain (OVCAR8), colon adenocarcinoma cell strain (HCT-116) Medium: OVCAR8: RPMI 1640+Fetal Bovine Serum […]
Binarize IC50 at 2 µM; below is satisfied, at or above is not satisfied.

INSERT INTO measurements (compound, assay_system, assigned_label) VALUES
  ('CNC(=O)CC1C[C@@H](c2ccc(F)c(F)c2)[C@H](NC(=O)c2cc(-c3c(Cl)cnn3C)c(Cl)o2)CN1 (stereo partly drawn) [Compound 105]', 'Human ovarian cancer cell strain OVCAR-8', 'satisfied'),
  ('COc1cc(C(=O)N[C@@H]2CNCC[C@H]2c2cccc(F)c2)ccc1-c1c(Cl)cnn1C [Compound 83]', 'Human ovarian cancer cell strain OVCAR-8', 'satisfied'),
  ('Cn1nccc1-c1csc(C(=O)N[C@H]2CNCC[C@@H]2c2ccc(Cl)cc2)c1 (racemic) [Compound 32]', 'Human ovarian cancer cell strain OVCAR-8', 'satisfied'),
  ('Cn1ncc(Cl)c1-c1ccc(C(=O)N[C@@H]2CNCC[C@H]2c2cccc(F)c2)cc1OC(F)(F)F [Compound 85]', 'Human ovarian cancer cell strain OVCAR-8', 'not satisfied'),
  ('Cc1cnn(C)c1-c1cnc(C(=O)N[C@H]2CNC[C@@H]2c2ccc(C(F)(F)F)cc2)cc1F (racemic) [Compound 71]', 'Human ovarian cancer cell strain OVCAR-8', 'not satisfied'),
  ('Cn1ncc(Cl)c1-c1csc(C(=O)N[C@H]2CNCC[C@@H]2c2ccc(Cl)cc2)c1 (racemic) [Compound 35]', 'Human ovarian cancer cell strain OVCAR-8', 'not satisfied'),
  ('Cn1ncc(Cl)c1-c1cnc(C(=O)N[C@@H]2CNCC[C@H]2c2ccc(F)c(F)c2)nc1 [Compound 93]', 'Human ovarian cancer cell strain OVCAR-8', 'not satisfied');

For Cn1ncc(Br)c1-c1coc(C(=O)N[C@H]2CNCC[C@@H]2c2ccc(C(F)(F)F)cc2)c1 (racemic) [Compound 27] , is the recorded IC50 below the cut-off of 2 µM?
satisfied
